These data points were gathered from patent EP1388586A2.

# Target of assay: DRB1*0401 (DR4w4) (Homo sapiens, UniProt P01903+P01911, A100K/A169T/F76Y/I96L/K127E/L162R/M171V/N62H/P40V/Q125Y/R42H/S133A/S149N/S66Y/V115G/V209L/W38E)
# Construct: used as sources of human HLA class II molecules; endogenous in cells; host or cells: PREISS (EBV-transformed homozygous B cell line)
# Test summary: Class II peptide-binding assay, DR4w4;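 note: unlabeled test peptides compete with a radiolabeled probe peptide for binding to affinity-purified HLA-DR, with DR amount titrated to capture a small fraction of label, IC50 approximating Kd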
# Applied conditions: read-out: DR4w4 nM (In IC50 Format); purified HLA DR4w4
Square brackets hold non-standard residues; d marks the D form. Peptide text beside a SMILES is read from it.
Metric: IC50 (nM)
Number in nM, nothing else.

# input So what does the record say about IC50 for CC[C@H](C)[C@H](NC(=O)[C@H](CCCNC(=N)N)NC(=O)[C@H](CO)NC(=O)[C@H](Cc1ccccc1)NC(=O)[C@@H](NC(=O)[C@H](CO)NC(=O)[C@H](CO)NC(=O)[C@H](CC(C)C)NC(=O)[C@@H]1CCCN1C(=O)[C@H](CO)NC(=O)[C@H](C)NC(=O)[C@@H](NC(=O)[C@@H](NC(=O)[C@H](CC(C)C)NC(=O)[C@@H](NC(=O)[C@@H]1CCCN1C(=O)[C@@H](N)CC(N)=O)C(C)C)[C@@H](C)O)[C@@H](C)O)[C@@H](C)CC)C(=O)O [Peptide 801.02] ?
# output 54.1

# input So what does the record say about IC50 for C[C@H](NC(=O)[C@H](C)NC(=O)[C@H](C)NC(=O)[C@H](C)NC(=O)[C@H](Cc1ccc(O)cc1)NC(=O)[C@H](C)NC(=O)[C@@H](C)N)C(=O)N[C@@H](C)C(=O)N[C@@H](C)C(=O)N[C@@H](CCCCN)C(=O)N[C@@H](C)C(=O)N[C@@H](C)C(=O)N[C@H](C)C(N)=O [Peptide 762.01] (H-[dA]AYAAAAAAKAA[dA]-NH2) ?
# output 7.1

# input So what does the record say about IC50 for C[C@H](NC(=O)[C@H](C)NC(=O)[C@H](C)NC(=O)[C@H](Cc1ccc(O)cc1)NC(=O)[C@H](C)NC(=O)[C@@H](C)N)C(=O)N[C@@H](C)C(=O)N[C@H](C(=O)N[C@@H](C)C(=O)N[C@@H](CCCCN)C(=O)N[C@@H](C)C(=O)N[C@@H](C)C(=O)N[C@H](C)C(N)=O)[C@@H](C)O [Peptide 762.02] (H-[dA]AYAAAATAKAA[dA]-NH2) ?
# output 2

# input So what does the record say about IC50 for CC(C)C[C@H](NC(=O)[C@@H](NC(=O)[C@@H](NC(=O)[C@H](CCC(N)=O)NC(=O)[C@H](CCCNC(=N)N)NC(=O)[C@H](CCC(N)=O)NC(=O)[C@@H](N)Cc1ccccc1)[C@@H](C)O)[C@@H](C)O)C(=O)N[C@@H](CCCCN)C(=O)N[C@@H](C)C(=O)N[C@@H](C)C(=O)N[C@H](C)C(N)=O [Peptide 781.06] (H-FQRQTTLKAA[dA]-NH2) ?
# output 2.4

# input So what does the record say about IC50 for CC[C@H](C)[C@H](NC(=O)[C@@H](NC(=O)[C@@H](NC(=O)[C@H](CCC(=O)O)NC(=O)[C@H](CCCNC(=N)N)NC(=O)CN)[C@@H](C)O)C(C)C)C(=O)N[C@@H](CCC(=O)O)C(=O)N[C@@H](Cc1ccc(O)cc1)C(=O)N[C@@H](CC(C)C)C(=O)N[C@H](C(=O)N[C@@H](CO)C(=O)N[C@@H](Cc1ccccc1)C(=O)NCC(=O)N[C@H](C(=O)N[C@@H](Cc1c[nH]c2ccccc12)C(=O)O)C(C)C)C(C)C [Peptide 802.04] ?
# output 833

* * *

# Target of assay: DRB10404 (DR4w14) (Homo sapiens, UniProt P01903+P01911, A100R/A169T/F76Y/I96L/K127E/L162R/M171V/N62H/P40V/Q125Y/R42H/S133A/S149N/S66Y/V209L/W38E)
# Construct: used as sources of human HLA class II molecules; endogenous in cells; host or cells: BIN40 (EBV-transformed homozygous B cell line)
# Test summary: Class II peptide-binding assay, DR4w14;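 note: unlabeled peptides compete with a radiolabeled probe for binding to affinity-purified HLA-DR, neutral pH, class II amount titrated to bind a small fraction of label, IC50 approximates Kd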
# Applied conditions: Table VIII; read-out: In IC50 Format DR4w14
Ends that are not written are not given here.
Metric: IC50

# input So what does the record say about IC50 for KMYFNLINTKCYKLEH [Peptide 541.14] ?
# output 3.57 µM

* * *

# Target of assay: DRB1*0701 (DR7) (Homo sapiens, UniProt P01903+P01911, A100R/A102G/A103Q/D57E/D86V/E43K/F76Y/K127E/L162R/M171V/P40G/Q125H/Q99D/R33Q/R42Y/R54Q/S133A/S66F/T210M/V115G/Y107V/Y59L/Y89S)
# Test summary: Class II peptide-binding assay, DR7;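 note: unlabeled peptides compete with an iodinated probe peptide for binding to affinity-purified HLA-DR at neutral pH, DR amount titered to bind a small tracer fraction, IC50 approximating Kd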
# Applied conditions: read-out: DR7 nM; Table VIII, In IC50 Format
Square brackets hold non-standard residues; d marks the D form. Peptide text beside a SMILES is read from it.
Metric: pIC50
Units for pIC50: none; it is -log10 of a concentration expressed in mol/L.

{"columns": ["Compound", "pIC50"],
 "data": [
  ["CC(C)C[C@H](NC(=O)[C@@H](NC(=O)[C@H](C)NC(=O)[C@H](C)NC(=O)[C@H](CCCCN)NC(=O)[C@H](C)NC(=O)[C@H](Cc1ccccc1)NC(=O)[C@H](CCCCN)NC(=O)[C@@H](C)N)[C@@H](C)O)C(=O)N[C@@H](CCCCN)C(=O)N[C@@H](C)C(=O)N[C@@H](C)C(=O)N[C@H](C)C(N)=O [Peptide 871.01] (H-[dA]KFAKAATLKAA[dA]-NH2)", 6.52],
  ["C[C@H](NC(=O)[C@H](N)Cc1ccc(O)cc1)C(=O)N[C@@H](C)C(=O)N[C@@H](Cc1ccccc1)C(=O)N[C@@H](C)C(=O)N[C@@H](C)C(=O)N[C@@H](C)C(=O)N[C@@H](C)C(=O)N[C@H](C(=O)N[C@@H](CCCCN)C(=O)N[C@@H](C)C(=O)N[C@@H](C)C(=O)N[C@@H](C)C(=O)N[C@H](C)C(N)=O)[C@@H](C)O [Peptide 828.10] (H-[dY]AAFAAAATKAAA[dA]-NH2)", 5.90],
  ["CC(C)C[C@H](NC(=O)[C@@H](NC(=O)[C@H](C)NC(=O)[C@H](C)NC(=O)[C@H](C)NC(=O)[C@H](CCCCN)NC(=O)[C@H](Cc1ccccc1)NC(=O)[C@H](C)NC(=O)[C@@H](C)N)[C@@H](C)O)C(=O)N[C@@H](CCCCN)C(=O)N[C@@H](C)C(=O)N[C@@H](C)C(=O)N[C@H](C)C(N)=O [Peptide 871.08] (H-[dA]AFKAAATLKAA[dA]-NH2)", 6.95],
  ["CC(C)C[C@H](NC(=O)[C@H](CCCCN)NC(=O)[C@H](CC(C)C)NC(=O)[C@@H](NC(=O)[C@H](CC(N)=O)NC(=O)[C@H](CCC(N)=O)NC(=O)[C@H](CCCCN)NC(=O)[C@@H](NC(=O)[C@H](Cc1ccc(O)cc1)NC(=O)[C@H](CCCCN)NC(=O)[C@@H]1CCCN1C(=O)[C@@H](N)CS)C(C)C)[C@@H](C)O)C(=O)N[C@@H](C)C(=O)N[C@H](C(=O)NCC(=O)O)[C@@H](C)O [Peptide 852.01]", 7.18]
]}

# input So what does the record say about pIC50 for CC(C)C[C@H](NC(=O)[C@@H](NC(=O)[C@H](C)NC(=O)[C@H](C)NC(=O)[C@H](CCCCN)NC(=O)[C@@H](NC(=O)[C@H](Cc1ccccc1)NC(=O)[C@H](CCCCN)NC(=O)[C@@H](C)N)C(C)C)[C@@H](C)O)C(=O)N[C@@H](CCCCN)C(=O)N[C@@H](C)C(=O)N[C@@H](C)C(=O)N[C@H](C)C(N)=O [Peptide 909.02] (H-[dA]KFVKAATLKAA[dA]-NH2) ?
# output 6.68

# input So what does the record say about pIC50 for CC(C)C[C@H](NC(=O)[C@@H](NC(=O)[C@@H](NC(=O)[C@H](CCC(N)=O)NC(=O)[C@H](CO)NC(=O)[C@H](CCC(N)=O)NC(=O)[C@H](Cc1ccccc1)NC(=O)[C@H](C)NC(=O)[C@H](C)NC(=O)[C@H](N)Cc1ccc(O)cc1)[C@@H](C)O)[C@@H](C)O)C(=O)N[C@@H](CCCCN)C(=O)N[C@@H](C)C(=O)N[C@@H](CCCCN)C(=O)N[C@@H](C(N)=O)[C@H](C)O [Peptide 858.04] (H-[dY]AAFQSQTTLKAK[dT]-NH2) ?
# output 4.60

# input So what does the record say about pIC50 for C[C@H](NC(=O)[C@H](C)NC(=O)[C@H](Cc1ccccc1)NC(=O)[C@H](C)NC(=O)[C@@H](C)N)C(=O)N[C@@H](C)C(=O)N[C@@H](C)C(=O)N1CCC[C@H]1C(=O)N[C@@H](CCCCN)C(=O)N[C@@H](C)C(=O)N[C@@H](C)C(=O)N[C@@H](C)C(=O)N[C@H](C)C(N)=O [Peptide 828.05] (H-[dA]AFAAAAPKAAA[dA]-NH2) ?
# output 5.88
